system: Plasmodium falciparum; test: Antimalarial activity against Chloroquine-pyrimethamine resistant Plasmodium falciparum W2 assessed as parasitic growth inhibition measured after 48 hrs; assay type: functional, organism-based; conditions: W2, 48 h
A collection of compounds and their measured IC50
Quick note: give the figure in µM, leave out the unit.

Observe how each entry below is paired with its result.
- STRUCTURE NOTATION: "N=C(N=C(N)N)SCCNc1ccnc2cc(Cl)ccc12"
  VALUE: 3.71
- STRUCTURE NOTATION: "N=C(N=C(N)N)SCCCNc1ccnc2cc(Cl)ccc12"
  VALUE: 2.31
- STRUCTURE NOTATION: "N=C(N=C(N)N)SCCCNc1ccnc2cc(C(F)(F)F)ccc12"
  VALUE: 3.21
- STRUCTURE NOTATION: "N=C(N=C(N)N)SCCCCNc1ccnc2cc(C(F)(F)F)ccc12"
  VALUE: 6.06

Proceed to the following item.
Find the measured IC50 of N=C(N=C(N)N)SCCNc1ccnc2cc(C(F)(F)F)ccc12 and report it. 2.95
